- subject.of.test: Tryptophan 5-hydroxylase 1 (Homo sapiens, UniProt P17752)
- Sequence (P17752 whole entry): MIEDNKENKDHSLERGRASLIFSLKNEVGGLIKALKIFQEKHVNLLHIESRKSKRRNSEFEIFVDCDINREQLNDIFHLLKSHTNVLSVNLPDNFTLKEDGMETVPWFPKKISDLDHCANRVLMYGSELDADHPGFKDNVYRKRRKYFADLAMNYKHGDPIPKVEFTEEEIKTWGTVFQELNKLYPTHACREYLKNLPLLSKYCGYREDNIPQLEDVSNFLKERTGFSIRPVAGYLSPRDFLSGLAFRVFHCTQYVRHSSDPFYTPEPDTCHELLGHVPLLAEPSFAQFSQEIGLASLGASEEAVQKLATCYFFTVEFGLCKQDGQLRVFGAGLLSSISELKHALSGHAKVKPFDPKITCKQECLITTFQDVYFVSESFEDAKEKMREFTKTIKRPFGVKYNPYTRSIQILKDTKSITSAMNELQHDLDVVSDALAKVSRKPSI
- measurement.notes: Inhibition of human recombinant TPH1 by continuous fluorescence assay
Rule: IC50 below 40 nM gives rule met. Equal to or above 40 nM gives rule not met.

# strict comparison: is reported IC50 < 40 nM? input = Cc1ccc(-c2ccc(CNc3nc(N)nc(-c4ccc(C[C@H](N)C(=O)O)cc4)n3)cc2)cc1 rule met

# strict comparison: is reported IC50 < 40 nM? input = CCC(Nc1nc(N)nc(-c2ccc(C[C@H](N)C(=O)O)cc2)n1)c1ccc2ccccc2c1 (stereo not given in full) rule not met

# strict comparison: is reported IC50 < 40 nM? input = Cc1ccc(CNc2nc(N)nc(-c3ccc(C[C@H](N)C(=O)O)cc3)n2)cc1C rule not met

# strict comparison: is reported IC50 < 40 nM? input = Nc1nc(NCc2ccccc2-c2ccccc2)nc(-c2ccc(C[C@H](N)C(=O)O)cc2)n1 rule met

# strict comparison: is reported IC50 < 40 nM? input = C[C@H](Nc1nc(N)nc(-c2ccc(C[C@H](N)C(=O)O)cc2)n1)c1ccc2ccccc2c1 rule not met

Value source: ChEMBL document CHEMBL1155300
